# measurement_protocol: Penetration of ocular drugs in the body and conversion to lanosterol (aqueous humor concentration after eye drops)
# Assay type: in vivo, New Zealand white rabbit
# run_conditions: New Zealand white, rabbit, aqueous humor, topical, 250 nmol per eye; 250 nmol lanosterol dripped into each eye; read-out: AUC (exposure amount) of lanosterol in the aqueous humor
experimental_readout: AUC (µM·h)
Expressed in µM·h, but write only the number.

Please look up its AUC: CC(C)=CCC[C@@H](C)[C@H]1CC[C@@]2(C)C3=C(CC[C@]12C)[C@@]1(C)CC[C@H](O)C(C)(C)[C@@H]1CC3
1.78

###

# measurement_protocol: Penetration of ocular drugs in the body and conversion to lanosterol (aqueous humor concentration after eye drops)
# Assay type: in vivo, New Zealand white rabbit
# run_conditions: New Zealand white, rabbit, in vivo; 250 nmol the compound of formula (I) dripped into each eye; analyte prodrug; read-out: AUC (exposure amount) of the compound of formula (I) in the aqueous humor
experimental_readout: AUC
Returns: string containing the numeric result and its unit.

Given the compound CC(C)=CCC[C@@H](C)[C@H]1CC[C@@]2(C)C3=C(CC[C@]12C)[C@@]1(C)CC[C@H](OC(=O)c2ccccc2O)C(C)(C)C1CC3 (stereo partly shown) , what is its reported AUC?
0.124 µM·h

Where do the numbers come from? From patent US11149055B2.
